# assay_name: BSK_LPS_PGE2: BioMAP Diversity Plus: LPS Assay for Prostaglandin E2 (PGE2) Biomarker Activity (AID 2283082)
# experimental_context: primary human HUVEC with PBMC; actives raise or lower the signal
Calls of active or inactive are those of the source. How the source made its calls: active means hit-call score of the fitted dose curve at least 0.9, where 1 is the maximum; inactive means score below 0.9.
Classes used: class 1 = active, class 0 = inactive

{"columns": ["compound", "answer_label"],
 "data": [
  ["CCN(CC)c1ccc(C=O)c(O)c1", "class 0"],
  ["CC1=CC2C3C=CC(C3)C2C1C (stereo not given)", "class 0"],
  ["OCC(F)(F)C(F)(F)C(F)(F)CO", "class 0"],
  ["CO[Si](C)(CCC(F)(F)C(F)(F)C(F)(F)C(F)(F)C(F)(F)C(F)(F)F)OC", "class 0"],
  ["O=C(O)CCC(F)(F)C(F)(F)C(F)(F)C(F)(F)C(F)(F)C(F)(F)C(F)(F)F", "class 0"],
  ["CC(C)(C)c1cc(CCC(=O)NCCCCCCNC(=O)CCc2cc(C(C)(C)C)c(O)c(C(C)(C)C)c2)cc(C(C)(C)C)c1O", "class 0"],
  ["O=C(O)C(F)(F)OC(F)(F)C(F)(F)OC(F)(F)C(F)(F)OC(F)(F)F", "class 0"],
  ["CCN(CCO)S(=O)(=O)C(F)(F)C(F)(F)C(F)(F)C(F)(F)C(F)(F)C(F)(F)C(F)(F)C(F)(F)F", "class 0"],
  ["O=C(O)C(F)(F)C(F)(F)C(F)(F)C(F)(F)C(F)(F)C(F)(F)C(F)F", "class 0"],
  ["FC(F)(F)C(F)(F)C(F)(F)CC1CO1 (stereo not given)", "class 0"],
  ["Nc1cc([N+](=O)[O-])cc(Cl)c1O", "class 0"],
  ["O=C1c2c(O)ccc(Nc3ccc(CCO)cc3)c2C(=O)c2c([N+](=O)[O-])ccc(O)c21", "class 1"],
  ["C[Si](Cl)(Cl)CCC(F)(F)C(F)(F)C(F)(F)C(F)(F)C(F)(F)C(F)(F)F", "class 0"],
  ["C[C@]12CC[C@H]3C(=CCc4cc(O)ccc43)[C@@H]1CCC2=O", "class 0"],
  ["Cc1cc(O)c(C(C)(C)C)cc1C(C)(C)C", "class 0"]
]}
